self-splicing fitness (ln) values, listed per item
assay comment: self-splicing fitness, log relative to wild type (ln ratio); higher = more splicing; Tetrahymena group I intron in knt gene, E. coli kanamycin selection, DiMSum; sequences stand for … in CUCUCU…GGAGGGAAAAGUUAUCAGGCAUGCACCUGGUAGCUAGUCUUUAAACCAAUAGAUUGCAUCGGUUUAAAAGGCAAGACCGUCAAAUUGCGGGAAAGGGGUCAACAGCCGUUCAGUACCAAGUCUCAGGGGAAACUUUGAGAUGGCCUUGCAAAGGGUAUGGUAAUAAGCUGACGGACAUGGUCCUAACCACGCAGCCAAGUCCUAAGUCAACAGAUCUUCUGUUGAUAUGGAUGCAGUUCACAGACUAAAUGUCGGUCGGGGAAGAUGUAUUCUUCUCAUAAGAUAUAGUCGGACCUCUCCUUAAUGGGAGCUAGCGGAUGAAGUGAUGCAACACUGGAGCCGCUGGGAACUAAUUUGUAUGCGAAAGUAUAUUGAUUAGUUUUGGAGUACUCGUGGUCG;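 also: selection with 25 µg/mL kanamycin versus none on LB agar overnight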
measurement context: 30 °C
When you answer, write just the number.

In the examples that follow, each entry is paired with its recorded self-splicing fitness (ln).
macromolecule sequence	measure name	assay result
GGACAGCAAUAUUACGGCCA	self-splicing fitness (ln)	-0.721
CAAAAGCAAUAUUACGCAUU	self-splicing fitness (ln)	-3.45
AAGUAGCAAUAUUACGAGGU	self-splicing fitness (ln)	-1.94
CGCUAGCAAUAUUACGUAUG	self-splicing fitness (ln)	-1.27
CGCUAGCAAUAUUACGCGUA	self-splicing fitness (ln)	-3.45
UACCAGCAAUAUUACGUGUU	self-splicing fitness (ln)	-3.72
UGACAGCAAUAUUACGCACU	self-splicing fitness (ln)	0.279
GCUCAGCAAUAUUACGCCUC	self-splicing fitness (ln)	-1.49
ACCAAGCAAUAUUACGGCCC	self-splicing fitness (ln)	-0.856
GCCAAGCAAUAUUACGGAAU	self-splicing fitness (ln)	-1.8

Input line: Would you mind telling me what self-splicing fitness (ln) value was observed for `GCCUAGCAAUAUUACGGAUU` ?
Output line: -0.548

----------
assay comment: self-splicing fitness, log relative to wild type (ln ratio); higher = more splicing; Tetrahymena group I intron in knt gene, E. coli kanamycin selection, DiMSum; sequences stand for … in CUCUCU…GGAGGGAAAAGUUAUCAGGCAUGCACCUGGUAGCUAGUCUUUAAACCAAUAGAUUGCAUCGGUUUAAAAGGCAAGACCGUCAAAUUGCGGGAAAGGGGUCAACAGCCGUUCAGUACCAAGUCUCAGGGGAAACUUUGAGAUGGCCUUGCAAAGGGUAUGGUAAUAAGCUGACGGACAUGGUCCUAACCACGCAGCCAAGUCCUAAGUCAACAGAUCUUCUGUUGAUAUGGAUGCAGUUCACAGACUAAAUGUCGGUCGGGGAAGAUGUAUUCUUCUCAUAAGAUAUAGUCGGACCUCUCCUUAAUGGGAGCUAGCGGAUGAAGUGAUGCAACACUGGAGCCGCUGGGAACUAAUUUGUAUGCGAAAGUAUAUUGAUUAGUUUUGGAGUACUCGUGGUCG
measurement context: 37 °C
The class of a record is decided solely by its measured self-splicing fitness (ln); consult zone 1: < -2; zone 2: ≥ -2 and < -0.6; zone 3: ≥ -0.6

macromolecule sequence	group label
CAUCAGCAAUAUUACGACAA	zone 2

Input line: Input `ACGGAGCAAUAUUACGCGUC` ; output its category
Output line: zone 2

Input line: Now the same for `CACUAGCAAUAUUACGUGUC`
Output line: zone 1

Input line: Now consider `UCUAAGCAAUAUUACGGAAU` .
Output line: zone 2

Input line: Field entry: `ACGCAGCAAUAUUACGGGCG`
Output line: zone 2

Input line: Quick one: `UCAAAGCAAUAUUACGGCCA`
Output line: zone 3

Input line: One more sequence: `UUAAAGCAAUAUUACGGGGU`
Output line: zone 1

Input line: Please give the result for `GAGCAGCAAUAUUACGUCCC` too.
Output line: zone 3

Input line: Further, for `AAUGAGCAAUAUUACGUCUC` ?
Output line: zone 1

Input line: Item: `CGGAAGCAAUAUUACGCUCU`
Output line: zone 2

Input line: Thanks! And `GACGAGCAAUAUUACGAGAG` ?
Output line: zone 2

Input line: Please give the result for `CGGUAGCAAUAUUACGGGCU` too.
Output line: zone 2

Input line: Now consider `AGUCAGCAAUAUUACGUGGG` .
Output line: zone 1

Input line: Now the same for `GACGAGCAAUAUUACGACUU`
Output line: zone 3

----------
assay comment: self-splicing fitness, log relative to wild type (ln ratio); higher = more splicing; Tetrahymena group I intron in knt gene, E. coli kanamycin selection, DiMSum; sequences stand for … in CUCUCU…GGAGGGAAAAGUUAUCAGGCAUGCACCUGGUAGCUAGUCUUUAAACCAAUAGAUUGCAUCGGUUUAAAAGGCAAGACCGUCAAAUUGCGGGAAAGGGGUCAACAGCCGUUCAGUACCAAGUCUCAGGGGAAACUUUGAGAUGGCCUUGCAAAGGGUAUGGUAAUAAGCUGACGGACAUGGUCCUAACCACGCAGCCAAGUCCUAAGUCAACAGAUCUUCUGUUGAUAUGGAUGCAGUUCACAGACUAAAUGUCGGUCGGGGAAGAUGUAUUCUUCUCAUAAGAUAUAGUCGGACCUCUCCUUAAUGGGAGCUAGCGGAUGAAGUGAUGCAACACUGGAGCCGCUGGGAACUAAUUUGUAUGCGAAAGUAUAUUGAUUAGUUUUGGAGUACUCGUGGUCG
measurement context: 37 °C
So basically, the class depends on measured self-splicing fitness (ln), and the ranges are LOW (below -2), MEDIUM (-2 to below -1), HIGH (-1 or more)

Before answering, review these 5 worked examples.
macromolecule sequence	group label
UGGUAGCAAUAUUACGAGAA	MEDIUM
GAACAGCAAUAUUACGUACG	HIGH
UAGUAGCAAUAUUACGAACC	LOW
GACUAGCAAUAUUACGGUUU	MEDIUM
CGCAAGCAAUAUUACGCGGG	LOW

Input line: Input `UACCAGCAAUAUUACGUGGC` ; output its category
Output line: LOW

Input line: Now the same for `CCUAAGCAAUAUUACGUCCG`
Output line: HIGH

Input line: What would you report for `GGGUAGCAAUAUUACGCCUU` ?
Output line: LOW

Input line: Please give the result for `UUGCAGCAAUAUUACGAUUU` too.
Output line: MEDIUM

Input line: And for `CAUCAGCAAUAUUACGAGAA` ?
Output line: LOW

----------
# reported self-splicing fitness (ln); entries follow
assay comment: self-splicing fitness, log relative to wild type (ln ratio); higher = more splicing; Tetrahymena group I intron in knt gene, E. coli kanamycin selection, DiMSum; sequences stand for … in CUCUCU…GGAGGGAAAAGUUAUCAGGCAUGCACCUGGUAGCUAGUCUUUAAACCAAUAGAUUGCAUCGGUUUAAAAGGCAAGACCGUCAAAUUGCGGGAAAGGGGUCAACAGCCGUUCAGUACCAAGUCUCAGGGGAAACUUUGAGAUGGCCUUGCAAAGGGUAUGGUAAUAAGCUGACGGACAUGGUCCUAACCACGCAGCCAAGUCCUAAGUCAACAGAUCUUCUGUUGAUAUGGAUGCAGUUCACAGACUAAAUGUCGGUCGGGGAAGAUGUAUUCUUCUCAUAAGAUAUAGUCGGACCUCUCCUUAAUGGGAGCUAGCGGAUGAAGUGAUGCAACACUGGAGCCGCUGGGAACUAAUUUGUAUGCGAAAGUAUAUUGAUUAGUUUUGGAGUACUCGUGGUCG
measurement context: 37 °C
Lab note: jot down the number only; don't add units.

Some entries whose results are on file:
macromolecule sequence	self-splicing fitness (ln)
UGUGAGCAAUAUUACGGUCU	-2.19
GCACAGCAAUAUUACGCUCC	0.155
AUCCAGCAAUAUUACGUUGA	-0.866
UCAGAGCAAUAUUACGAACG	-1.85
AGUUAGCAAUAUUACGGAUC	-1.09
AUAUAGCAAUAUUACGUACG	-0.317

The record that follows has no self-splicing fitness (ln) shown yet.
Input line: // query self-splicing fitness (ln) value for entry `CAGUAGCAAUAUUACGAGUU`
Output line: -2.06

----------
assay comment: self-splicing fitness, log relative to wild type (ln ratio); higher = more splicing; Tetrahymena group I intron in knt gene, E. coli kanamycin selection, DiMSum; sequences stand for … in CUCUCU…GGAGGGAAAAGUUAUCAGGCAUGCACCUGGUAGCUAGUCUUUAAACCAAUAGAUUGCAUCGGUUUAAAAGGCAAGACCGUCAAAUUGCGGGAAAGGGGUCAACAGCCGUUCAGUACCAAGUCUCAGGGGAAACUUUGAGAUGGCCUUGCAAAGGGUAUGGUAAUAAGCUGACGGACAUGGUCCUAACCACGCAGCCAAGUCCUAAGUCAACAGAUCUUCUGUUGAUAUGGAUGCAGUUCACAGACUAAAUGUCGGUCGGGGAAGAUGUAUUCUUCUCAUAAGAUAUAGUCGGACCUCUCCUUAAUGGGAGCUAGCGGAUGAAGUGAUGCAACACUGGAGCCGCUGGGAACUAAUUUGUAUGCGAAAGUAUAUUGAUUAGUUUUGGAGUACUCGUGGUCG
measurement context: 37 °C
measure name: self-splicing fitness (ln)
The response must contain the number and no unit.

Solved entries:
macromolecule sequence	assay result
AAUCAGCAAUAUUACGUCAG	-0.81
CAUUAGCAAUAUUACGAGCC	-2.08
UCUCAGCAAUAUUACGAAGG	-0.314
UAUCAGCAAUAUUACGUCCC	0.683
CCUCAGCAAUAUUACGCUAG	-1.04
AUGUAGCAAUAUUACGGAGA	-2.06
GGAAAGCAAUAUUACGUUUC	-2.5
GUUUAGCAAUAUUACGCAUA	-1.19
UGGCAGCAAUAUUACGUUAA	-0.28
UUAUAGCAAUAUUACGUCUU	-0.948

Input line: Tell me the measured self-splicing fitness (ln) of `CGAAAGCAAUAUUACGAUCA` , please.
Output line: 0.699

Input line: `GACUAGCAAUAUUACGACCU` , same question.
Output line: -0.756

Input line: Follow-up entry: `CCUAAGCAAUAUUACGCCCA`
Output line: -2.02

Input line: Then `GCUUAGCAAUAUUACGGAUG` ?
Output line: -1.05

Input line: Param item: `AUUCAGCAAUAUUACGAGGU`
Output line: -1.72

Input line: And the next one, `GCAUAGCAAUAUUACGCGAC` ?
Output line: 0.0921

Input line: Query `AUCGAGCAAUAUUACGACAA` next
Output line: -2.2
